Percent Effect for assorted molecules
Test system: Wolbachia pipientis
METHOD NOTES: Anti-Wolbachia Cell-Based Screen
Format: functional
Set-up: scale not given: in the data most compounds retested in dose-response had high values
TEST SETTINGS: 5 µM
About 13,000 (27%) of roughly 48,000 compounds showed an effect of 50% or more. This is one part of the list.
MEASURE: Percent Effect (%)

# MOLECULE, RESULT NUMBER
records = [
    ("CC(C)(CNCc1ccc(OCc2cscn2)cc1)C(N)=O.Cl", 0.3922),
    ("O=C(C1CCOC1)N1CCC2(CC1)CN(c1ncccn1)CCO2.O=C(O)C(F)(F)F (configuration not stated)", -29.34),
    ("O=C1NC2(CCN(C(=O)c3ccnnc3)CC2)CC1c1ccccc1 (configuration not stated)", 95.48),
    ("COc1ccc(C(=O)N2CCC(c3nccn3C(C)C)CC2)cc1OC", -4.969),
    ("CCc1ccc(C(=O)O)cc1S(=O)(=O)Nc1ccc(F)c(C#N)c1", 3.443),
    ("COCC(=O)Nc1ccc([C@@H](O)[C@H]2COCC(=O)N2CC(C)C)cc1", 0.04576),
    ("COC(=O)N1CCN(C(=O)c2ccc(C)c(N3CCNC3=O)c2)CC1", -15.45),
    ("COc1ncc(C(=O)N2CCC(c3nc(C)n4ccsc34)CC2)cn1", 120.4),
    ("CCOC(=O)C(CO)NC(=O)CCc1cccc(OC2CCCC2)c1 (configuration not stated)", -6.497),
    ("CN(Cc1cccc(F)c1)C(=O)CS(=O)(=O)Cc1c(Cl)cccc1Cl", -4.804),
    ("CC(NC(=O)CSCC(=O)Nc1ccccc1)c1ccccc1 (configuration not stated)", 5.031),
    ("CCCn1nc(C)c(CN2CC3(CCOC3)CCC2=O)c1C (configuration not stated)", -15.65),
    ("Cc1ccc(C(=O)N2CCC3(CC2)CC(c2ccccc2)C(=O)N3)cn1.O=C(O)C(F)(F)F (configuration not stated)", -11.02),
    ("COCCC1(C(=O)O)CCCN(Cc2cc3c(cc2C)OCO3)C1 (configuration not stated)", 0.3642),
    ("CC(=O)N1CCCC2(C1)CN(C(=O)C1CCCCC1)CCO2 (configuration not stated)", -22.57),
    ("O=C(O)c1ccc(F)c(S(=O)(=O)Nc2ccc(-n3cccn3)c(Cl)c2)c1", -11.53),
    ("CC(C)NC(=O)N1CCC2(CC1)CN(C(=O)NC(C)C)CCO2", 117),
    ("N#Cc1cc(NS(=O)(=O)c2cc(C(=O)O)cc(Cl)c2Cl)ccc1F", 118.7),
    ("O=C(c1cn(CCN2CCCCC2)nn1)N1CCSCC1", 10.37),
    ("N#Cc1cc(NS(=O)(=O)c2ccc(C(=O)O)cc2F)ccc1F", -1.66),
    ("O=C(C1CCOC1)N1Cc2ccccc2OC2(CCOCC2)C1 (configuration not stated)", 110.4),
    ("O=C(c1nccc2ccccc12)N(Cc1ccco1)CC1CCCO1 (configuration not stated)", 5.16),
]
